molecular target: Glutathione peroxidase 1 (Homo sapiens) (UniProt P07203); assay: Primary qHTS Assay for Inhibitors of Recombinant Selenoprotein Glutathione Peroxidase 1 (GPX1) (AID 1845191); settings: recombinant GPX1, GR-coupled NADPH fluorescence, 15 min; series mostly up to 27.7 µM; also: nearly all actives have a fitted effect of over 65% in size
Sequence (P07203 whole entry, looked up): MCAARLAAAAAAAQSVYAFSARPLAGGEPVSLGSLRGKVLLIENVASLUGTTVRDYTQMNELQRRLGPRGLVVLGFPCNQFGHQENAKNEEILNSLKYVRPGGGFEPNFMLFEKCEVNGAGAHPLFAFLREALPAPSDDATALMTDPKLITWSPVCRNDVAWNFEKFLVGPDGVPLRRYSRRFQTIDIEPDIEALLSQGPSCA
Results filed as inconclusive are left out. Active and inactive are the calls of the source. Calls follow the shape of the dose curve; as a rule, active = well fitted inhibition curve with a large enough effect; inconclusive = small, poorly fitted or top-dose-only effect; inactive = flat fitted curve, though single readings scatter.
Observable: outcome

>>> reported_value("CC1=CCC[C@@H]2[C@@](C)(CCc3ccoc3)[C@H](C(=O)O)CC[C@@]12C")
"inactive"
>>> reported_value("CCC(C)C(C(=O)O)N1Cc2c(OCC=C(C)C)c(C)c(OC)c(C(=O)O)c2C1=O (stereo not given)")
"inactive"
>>> reported_value("COCc1c(O)c(C(=O)O)c(C)c2c1OC(=O)c1c(C)cc(O)c(CO)c1O2")
"inactive"
>>> reported_value("CN(C)CC(c1ccc(O)cc1)C1(O)CCCCC1 (stereo not given)")
"inactive"
>>> reported_value("COC(=O)C(CC1(OC(=O)C(C)C)c2ccccc2N2C(=O)C(C)(C)N(O)C21)n1cnc2ccccc2c1=O (stereo not given)")
"inactive"
